TGI values for the molecules below.
Tested on: OVCAR-8 ovarian
Assay: NCI tumour cell line growth inhibition, 48 h
reported.metric: TGI (µM)

In [3]: df
Out[3]:
                                   molecule  unit_spec  comparator  test_value
0     Cc1cc(C)n(C2=NS(=O)(=O)c3ccccc3N2C)n1         µM           >         100
1  CC1(C)OC2COC3([C@@H]4OC(C)(C)O[C@@H]4CO)OC(C)(C)OC3C2O1 (stereo not given in full)         µM           >         100
2  C=CCNC(=O)N(CCC)CCCC(NC(C)=O)C(=O)NCc1ccccc1 (stereo not given)         µM           >         100
3  CCN(CCCl)c1cc(CN(C)C)cc(NC(=O)c2ccc(C(=O)Nc3cccc(CN(C)C)c3)cc2)c1         µM           =        12.8
4  CCN(CC)CCO/N=C1\CC[C@H]2[C@@H]3CCc4cc(OC)ccc4[C@H]3CC[C@]12C         µM           =        7.95
